Recorded measurements of inhibition of aggregation, one per entry
experiment: reduction of polyQ htt aggregates in cells – imaging, exon1htt(103Q)mCFP cells, high-content imaging, primary screen (AID 483);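 further: compound exposure lasted 3 days before fixation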
assay conditions: exon1htt(103Q)mCFP cell line, aggregate imaging, at 2 µM; stronger effect = higher value
Write the answer as a number in %, unit excluded.

Observe how each entry below is paired with its result.
- compound: "Cc1c(C(=O)N2CCCC2)sc(NC(=O)c2cccs2)c1C#N"
  inhibition of aggregation [%]: 10.4
- compound: "COc1ccc(N2CCN(Cc3nc(-c4ccc(Cl)cc4Cl)no3)CC2)cc1"
  inhibition of aggregation [%]: 4.9
- compound: "Cc1ccc(C(=O)Nc2ccc(Cl)cn2)cc1S(=O)(=O)N1CCOCC1"
  inhibition of aggregation [%]: -0.1

Entry CCc1nc(N)c(C#N)c(-c2ccc(OC)c(OC)c2)c1C ; inhibition of aggregation = -13.8

Entry O=C(CN1CCN(Cc2ccc(F)cc2Cl)C1=O)NCCCN1CCOCC1 ; inhibition of aggregation = -27.6

Entry C=CCN1C(=O)CS/C1=C(\C#N)S(=O)(=O)c1ccc(C)cc1 ; inhibition of aggregation = -5.1

Entry c1ccc(Oc2ccc(-n3cnnn3)cc2)cc1 ; inhibition of aggregation = -1.2

Entry N#C/C(=C(/O)COC(=O)CCC1CCCCC1)c1nc2ccccc2[nH]1 ; inhibition of aggregation = -9.2

Entry CCOC(=O)CSc1nc2cccnc2n1-c1ccc(F)cc1 ; inhibition of aggregation = -28

Entry c1ccc(-n2cnc3cc(NCc4ccccn4)ccc32)cc1 ; inhibition of aggregation = 25.1

Entry CCn1c(=N)n(CC(O)c2ccco2)c2ccccc21 (stereo unspecified) ; inhibition of aggregation = -20.7

====

experiment: endothelial E-selectin expression blockers – imaging, HUVEC, immunofluorescence, MLSMR starter and 10KST1 sets, primary screen (AID 487);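 on nuclei count: 100% = median nuclei count of all wells on the same plate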
assay conditions: HUVEC TNFalpha-induced E-selectin immunofluorescence imaging, at 2 µM; measured here: cell number, toxicity
Recorded measurements of nuclei count, one per entry
Write the answer as a number in %, unit excluded.

- compound: "CC1CCCc2sc3nc(NCc4ccco4)n4ncnc4c3c21 (stereo unspecified)"
  nuclei count (%): 112

Entry COc1ccc(C(=O)Nc2nc(C)c(C(=O)N(C)C)s2)cc1OC ; nuclei count = 91.8

Entry COC(=O)c1ccc(NC(=O)Cn2nnc3ccccc32)cc1 ; nuclei count = 134

Entry Cc1ccc(NC(=O)c2cc(-c3ccc(C)o3)nc3ccccc23)nc1 ; nuclei count = 106

Entry CCOC(=O)CN(C(=O)c1ccccc1)c1ccccc1C ; nuclei count = 72.6

Entry Cc1cccc(C2CC(c3ccccc3)Nc3nc(N)nn32)c1 (stereo unspecified) ; nuclei count = 120

====

Recorded measurements of NADPH fluorescence slope, one per entry
target of assay: Voltage-gated potassium channel subunit beta-2 (Rattus norvegicus)
experiment: enhancers of rat Kvbeta2 NADPH turnover – biochemical, NADPH fluorescence, primary screen (AID 623);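 further: fluorescence intensity change per second fitted from 20 to 320 s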
assay conditions: Recombinant KvBeta, NADPH fluorescence decrease slope, 10 min; at 10 µM; stronger effect = lower value
Active and inactive are the calls of the source.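 Rule for the calls: active = NADPH fluorescence slope more negative than the mean of all samples by about 3 SD, 99.7% confidence; inactive = the rest.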

- molecule: "CN(C)CCNC(=O)c1ccc(COCC(F)(F)F)cc1"
  target of assay: "Voltage-gated potassium channel subunit beta-2 (Rattus norvegicus)"
  NADPH fluorescence slope: "-3.8e-05 (inactive)"
- molecule: "C=CCn1c(SCC(=O)Nc2ccccc2OC)nnc1-c1ccccn1"
  target of assay: "Voltage-gated potassium channel subunit beta-2 (Rattus norvegicus)"
  NADPH fluorescence slope: "-2.6e-05 (inactive)"
- molecule: "Cc1cc(C)c2c(=O)n(CC(=O)NCCCN3CCOCC3)sc2n1"
  target of assay: "Voltage-gated potassium channel subunit beta-2 (Rattus norvegicus)"
  NADPH fluorescence slope: "-3.1e-05 (inactive)"

Entry COc1cccc(/C=N/n2c(-c3ccco3)nc3ccccc3c2=O)c1 ; NADPH fluorescence slope = -4.4e-05 (inactive)

Entry Cc1ccnc(SCCn2c(N3CCCCC3)nc3c2c(=O)n(C)c(=O)n3C)n1 ; NADPH fluorescence slope = 1.8e-05 (inactive)

Entry Cc1c(NC(=O)Cn2nc(C(=O)O)c3ccccc3c2=O)c(=O)n(-c2ccccc2)n1C ; NADPH fluorescence slope = 3.3e-05 (inactive)

Entry c1cnc2c(SCc3ccc(-c4nnco4)cc3)cccc2c1 ; NADPH fluorescence slope = -4.6e-06 (inactive)

Entry COc1ccc(OC)c(C2C(C(=O)Nc3cccnc3)=C(C)NC3=C2C(=O)CCC3)c1 (stereo unspecified) ; NADPH fluorescence slope = 2.2e-05 (inactive)

Entry COC(=O)c1ccsc1NC(=O)CN1C(=O)CCC1=O ; NADPH fluorescence slope = -3.2e-05 (inactive)

Entry CCOc1ccccc1OCCCCN1CCCC1 ; NADPH fluorescence slope = -5.2e-06 (inactive)

Entry CCCCOc1ccc(-c2ncc(Cl)cn2)cc1 ; NADPH fluorescence slope = -6.7e-06 (inactive)

====

experiment: inhibitors of TNFa-induced NFkB p65 translocation, primary screen, imaging, HUVEC, MLSMR starter and 10KST1 sets (AID 438);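 further: compound added about 3h40 before a 20 min TNFalpha stimulation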
assay conditions: HUVEC TNFa-induced p65 nuclear translocation; measured here: nuclei count (cytotoxicity indicator), at 2.08 µM
measure name: cell count

- compound: "Clc1cccc(N2CCN(Cc3nc(-c4ccccc4)no3)CC2)c1"
  cell count: 716
- compound: "CCn1cc(C(=O)NCCCOC)c(=O)c2cc(S(=O)(=O)N(C)C3CCCCC3)ccc21"
  cell count: 559
- compound: "CN(C)c1nc(N)nc(-c2nc3ccccc3s2)n1"
  cell count: 824
- compound: "CCOC(=O)c1ccc(NC(=O)Cn2cc3c(n2)CCC(C)C3)cc1 (stereo unspecified)"
  cell count: 711
- compound: "Cc1noc(C)c1CSc1nc2cc(S(=O)(=O)N3CCOCC3)ccc2o1"
  cell count: 515

Entry CN1CCN(C2=C(Cl)C(=O)N(c3cccc(Cl)c3)C2=O)CC1 ; cell count = 396

Entry Cc1cc(NC(=O)c2cnn3c(C(F)F)cc(C4CC4)nc23)no1 ; cell count = 747

====

experiment: endothelial E-selectin expression blockers – imaging, HUVEC, immunofluorescence, MLSMR starter and 10KST1 sets, primary screen (AID 487);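 on inhibition: signal is fraction of cell area covered by stained E-selectin grains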
assay conditions: HUVEC TNFalpha-induced E-selectin immunofluorescence imaging, at 2 µM; stronger effect = higher value
Calls of active or inactive are those of the source.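 Rule for the calls: active = visually confirmed hit in the image check and inhibition above 20%; inconclusive = visually confirmed hit but inhibition not above 20%; inactive = no visual hit in the image check.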
Recorded measurements of inhibition, one per entry

Observe how each entry below is paired with its result.
- compound: "CCOc1ccc2[nH]c(=O)c(C(c3nnnn3CC3CCCO3)N3CCc4ccccc4C3)cc2c1 (stereo unspecified)"
  inhibition: "-1.8% (inactive)"
- compound: "COCCNC(=O)C(c1cccc(OC)c1)N(Cc1cccs1)C(=O)Cn1nnc2ccccc21 (stereo unspecified)"
  inhibition: "-34.3% (inactive)"
- compound: "COCCSc1nnc(NC(=O)Cc2ccccc2OC)s1"
  inhibition: "-30.7% (inactive)"
- compound: "Cn1c(C(=O)NCCCN2CCCCCC2)cc2c(=O)n(C)c3ccccc3c21"
  inhibition: "-33.1% (inactive)"
- compound: "O=C(NCc1cccs1)C1CC(=O)N(c2ccccc2)C1 (stereo unspecified)"
  inhibition: "-28.7% (inactive)"

Entry CC(C)c1nnc(NC(=O)c2cnccn2)s1 ; inhibition = -38.5% (inactive)

Entry CCOC(=O)c1nnn(CC(=O)Nc2cccc(F)c2)c1C(=O)OCC ; inhibition = -41.8% (inactive)

Entry O=C(O)c1ccc2c(c1)C(=O)N(c1ccc(Cl)cn1)C2=O ; inhibition = -72% (inactive)

Entry CC(=O)c1coc2ccc(OCC(=O)O)cc12 ; inhibition = -42.3% (inactive)

Entry Cc1nnc(SCC(=O)N2CCC(C(=O)Nc3nccs3)CC2)n1Cc1ccccc1 ; inhibition = 10.2% (inactive)

Entry O=C(NCc1cccnc1)c1ccccn1 ; inhibition = -18.1% (inactive)

====

experiment: endothelial E-selectin expression blockers – imaging, HUVEC, immunofluorescence, MLSMR starter and 10KST1 sets, primary screen (AID 487)
assay conditions: HUVEC TNFalpha-induced E-selectin immunofluorescence imaging, at 2 µM
Calls of active or inactive are those of the source.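 The calls were made as follows: active = visually confirmed hit in the image check and inhibition above 20%; inconclusive = visually confirmed hit but inhibition not above 20%; inactive = no visual hit in the image check.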
Log the outcome using a class from 1 (yes) (active), 0 (no) (inactive)

- compound: "Cc1nc(-c2cccc(N)c2)cs1"
  class: "0 (no)"
- compound: "COc1ccc(-c2nnc(-c3cccs3)o2)cc1OC"
  class: "1 (yes)"
- compound: "COC(=O)c1cnc2c(C(F)(F)F)cccc2c1OC"
  class: "0 (no)"
- compound: "COc1ccc(C(=O)NCCn2ccc3ccccc32)c(OC)c1"
  class: "0 (no)"
- compound: "CCc1ccc(Nc2cc(=O)n(C3CCCCC3)c(=O)[nH]2)cc1"
  class: "0 (no)"
- compound: "CCCn1c(OC)nc2c1c(=O)n(C)c(=O)n2C"
  class: "0 (no)"
- compound: "COc1ccc(N2CCN(C(=O)Cc3ccc(-n4c(=O)[nH]c5ccccc5c4=O)cc3)CC2)cc1"
  class: "0 (no)"
- compound: "CC(C)CCN1CC(C(=O)NCc2ccccc2)CC1=O (stereo not given)"
  class: "0 (no)"
- compound: "CC1CCc2nn(CC(=O)NCCCN3CCOCC3)cc2C1 (stereo not given)"
  class: "0 (no)"
- compound: "O=C(Nc1nc2c(s1)CCCC2)C1COc2ccccc2O1 (stereo not given)"
  class: "0 (no)"

Here's the next entry for you.
What was the test verdict on C=CCSC1=C(C#N)C(c2ccccc2Cl)CC(=O)N1 (stereo not given) ?
0 (no)
